- study target: PfRH5 of Plasmodium falciparum strain HB3 (on live parasites) (Plasmodium falciparum)
- measurement notes: cell-based or functional assay
# Lookup of reported Max growth inhibition (%) HB3 keyed by entry
Only the number, expressed in %, is required.

As a guide, the following entries are already answered.
- binder: "H1H29089P (antibody, V domains shown) VH: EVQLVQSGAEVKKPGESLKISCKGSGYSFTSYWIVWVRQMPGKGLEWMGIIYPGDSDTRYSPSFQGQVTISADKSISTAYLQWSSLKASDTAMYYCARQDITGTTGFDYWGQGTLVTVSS VL: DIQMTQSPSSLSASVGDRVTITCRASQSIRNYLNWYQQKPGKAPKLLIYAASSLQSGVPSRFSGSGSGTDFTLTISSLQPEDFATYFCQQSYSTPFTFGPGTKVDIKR"
  units text: "%"
  Max growth inhibition (%) HB3: 59.1
- binder: "H1H29138P (antibody, V domains shown) VH: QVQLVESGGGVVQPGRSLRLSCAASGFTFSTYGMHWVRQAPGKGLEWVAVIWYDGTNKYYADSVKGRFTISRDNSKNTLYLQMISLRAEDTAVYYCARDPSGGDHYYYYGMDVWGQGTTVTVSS VL: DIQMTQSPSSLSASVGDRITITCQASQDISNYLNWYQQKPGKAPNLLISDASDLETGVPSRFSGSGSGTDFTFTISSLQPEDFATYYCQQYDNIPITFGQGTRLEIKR"
  units text: "%"
  Max growth inhibition (%) HB3: 51.4
- binder: "H1H29109P (antibody, V domains shown) VH: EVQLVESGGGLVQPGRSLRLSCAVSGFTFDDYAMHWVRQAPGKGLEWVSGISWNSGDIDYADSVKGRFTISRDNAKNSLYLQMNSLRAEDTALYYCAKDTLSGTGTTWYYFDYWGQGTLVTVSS VL: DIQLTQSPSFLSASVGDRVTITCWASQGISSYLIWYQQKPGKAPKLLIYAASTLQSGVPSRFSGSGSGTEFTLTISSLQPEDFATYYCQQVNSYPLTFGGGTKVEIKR"
  units text: "%"
  Max growth inhibition (%) HB3: 32.2
- binder: "H1H29127P (antibody, V domains shown) VH: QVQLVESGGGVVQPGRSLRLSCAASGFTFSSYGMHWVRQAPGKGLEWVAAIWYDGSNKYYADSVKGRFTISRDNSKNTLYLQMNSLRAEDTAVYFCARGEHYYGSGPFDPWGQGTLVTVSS VL: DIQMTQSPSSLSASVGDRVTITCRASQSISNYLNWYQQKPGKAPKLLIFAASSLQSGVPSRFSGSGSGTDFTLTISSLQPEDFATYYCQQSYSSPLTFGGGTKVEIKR"
  units text: "%"
  Max growth inhibition (%) HB3: 59.4
- binder: "H1H29104P (antibody, V domains shown) VH: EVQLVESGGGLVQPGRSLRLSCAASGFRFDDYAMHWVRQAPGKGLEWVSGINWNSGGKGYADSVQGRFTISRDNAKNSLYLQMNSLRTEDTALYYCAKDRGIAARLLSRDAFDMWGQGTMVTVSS VL: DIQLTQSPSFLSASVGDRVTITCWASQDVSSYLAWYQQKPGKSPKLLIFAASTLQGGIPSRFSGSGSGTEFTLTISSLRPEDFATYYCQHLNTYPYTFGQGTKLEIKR"
  units text: "%"
  Max growth inhibition (%) HB3: 39.8

// next item, Max growth inhibition (%) HB3 requested
Short answer for H1H29100P (antibody, V domains shown) VH: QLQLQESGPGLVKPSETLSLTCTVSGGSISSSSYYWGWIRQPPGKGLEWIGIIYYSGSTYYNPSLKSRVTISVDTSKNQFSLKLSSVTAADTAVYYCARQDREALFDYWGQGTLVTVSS VL: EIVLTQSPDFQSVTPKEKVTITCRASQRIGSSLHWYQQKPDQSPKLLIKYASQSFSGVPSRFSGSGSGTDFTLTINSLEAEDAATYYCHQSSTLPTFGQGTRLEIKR : Max growth inhibition (%) HB3 was 62.6

These entries and their values trace back to patent US20240400663A1.
